Where do these numbers come from? They come from paper PMC8185074.

testSystem: HDAC2 (Homo sapiens)
Construct: purchased Reaction Biology Corporation (assay run by the CRO)
Sequence (Q92769 whole entry): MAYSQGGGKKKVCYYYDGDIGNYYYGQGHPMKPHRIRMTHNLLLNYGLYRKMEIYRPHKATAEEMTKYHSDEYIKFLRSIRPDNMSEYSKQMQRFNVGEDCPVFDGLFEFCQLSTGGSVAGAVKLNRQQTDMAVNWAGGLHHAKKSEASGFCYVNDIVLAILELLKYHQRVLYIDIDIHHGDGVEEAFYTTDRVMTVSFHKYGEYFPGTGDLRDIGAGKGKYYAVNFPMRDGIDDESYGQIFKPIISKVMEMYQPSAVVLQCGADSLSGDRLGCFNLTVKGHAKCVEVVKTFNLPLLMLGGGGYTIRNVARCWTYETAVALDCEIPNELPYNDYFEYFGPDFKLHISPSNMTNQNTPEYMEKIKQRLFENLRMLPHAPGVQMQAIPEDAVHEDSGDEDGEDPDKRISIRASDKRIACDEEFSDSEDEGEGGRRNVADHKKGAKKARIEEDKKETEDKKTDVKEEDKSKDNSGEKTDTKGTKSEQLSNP
assayMethodText: HDAC2 inhibition, full IC50 measurement (Reaction Biology; fluorogenic p53 peptide RHKK(Ac)AMC)
Type: biochemical
experimentalContext: Conc. 4.57E-09 M, t1
Peptide text beside a SMILES is read from it.

compound: CCCC[C@H]1NC(=O)[C@H](Cc2ccccc2)NC(=O)[C@H](CCCCCS)NC(=O)[C@@H](CO)NC(=O)[C@H](CC(=O)O)NC(=O)[C@@H](CO)NC(=O)[C@@H](C)NC(=O)[C@H](CCCCN)NC1=O [des4.3.1.1, SHA-Phe-dNle-Lys-dAla-dSer-Asp-dSer] (HELM PEPTIDE1{D.[dS].[O=C([C@H](CCCCCS)N[*:1])[*:2]].F.[CCCC[C@@H](N[*:1])C(=O)[*:2]].K.[dA].[dS]}$PEPTIDE1,PEPTIDE1,1:R1-8:R2$$$V2.0)
HDAC2 activity raw data (signal): 1817065

---

testSystem: HDAC3 (Homo sapiens)
Construct: purchased Reaction Biology Corporation (assay run by the CRO)
Sequence (O15379 whole entry): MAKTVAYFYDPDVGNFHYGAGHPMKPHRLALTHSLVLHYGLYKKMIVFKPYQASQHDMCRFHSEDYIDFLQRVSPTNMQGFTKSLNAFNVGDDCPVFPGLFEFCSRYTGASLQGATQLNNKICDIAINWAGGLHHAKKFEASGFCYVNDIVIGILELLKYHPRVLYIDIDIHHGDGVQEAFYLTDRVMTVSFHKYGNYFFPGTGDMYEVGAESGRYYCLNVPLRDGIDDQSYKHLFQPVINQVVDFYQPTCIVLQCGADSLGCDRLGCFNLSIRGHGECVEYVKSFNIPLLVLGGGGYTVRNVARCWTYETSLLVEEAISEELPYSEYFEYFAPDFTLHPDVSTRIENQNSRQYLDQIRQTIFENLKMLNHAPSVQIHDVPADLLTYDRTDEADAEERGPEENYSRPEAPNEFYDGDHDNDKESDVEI
Sequence (Q9Y618 395-489 partner limits assumed): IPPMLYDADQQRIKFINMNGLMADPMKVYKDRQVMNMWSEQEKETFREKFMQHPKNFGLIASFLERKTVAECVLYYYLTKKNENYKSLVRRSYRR
assayMethodText: HDAC3 inhibition, full IC50 measurement (Reaction Biology; fluorogenic p53 peptide RHKK(Ac)AMC)
Format: biochemical
experimentalContext: Conc. 1.52E-09 M, t2
Peptide text beside a SMILES is read from it.

compound: N=C(N)NCCC[C@@H]1NC(=O)[C@H](Cc2c[nH]c3ccccc23)NC(=O)[C@H](CC(=O)O)NC(=O)[C@@H](CO)NC(=O)[C@H](Cc2c[nH]c3ccccc23)NC(=O)[C@H](CCCCCS)NC(=O)[C@H](CCC(N)=O)NC1=O [des4.1.0, SHA-Trp-dSer-Asp-Trp-Arg-Gln] (HELM PEPTIDE1{D.W.R.Q.[O=C([C@H](CCCCCS)N[*:1])[*:2]].W.[dS]}$PEPTIDE1,PEPTIDE1,1:R1-7:R2$$$V2.0)
HDAC3 activity raw data (signal): 1009763
--
compound: CSCC[C@H]1NC(=O)[C@@H](CO)NC(=O)[C@H](CC(N)=O)NC(=O)[C@H](CC(=O)O)NC(=O)[C@@H]([C@H](C)O)NC(=O)[C@H](Cc2c[nH]c3ccccc23)NC(=O)[C@H](CCCCCS)NC(=O)[C@H](CCCCN)NC(=O)[C@@H](CC(=O)O)NC1=O [des2.1.1, SHA-Trp-dThr-Asp-Asn-dSer-dMet-dAsp-Lys] (HELM PEPTIDE1{D.N.[dS].[dM].[dD].K.[O=C([C@H](CCCCCS)N[*:1])[*:2]].W.[dT]}$PEPTIDE1,PEPTIDE1,1:R1-9:R2$$$V2.0)
HDAC3 activity raw data (signal): 1253696
--
compound: C[C@H](O)[C@H]1NC(=O)[C@H](Cc2c[nH]c3ccccc23)NC(=O)[C@H](CCCCCS)NC(=O)[C@H](CCCCN)NC(=O)[C@@H](CC(=O)O)NC(=O)[C@@H](CCCCN)NC(=O)[C@@H](CO)NC(=O)[C@H](CC(N)=O)NC(=O)[C@H](CC(=O)O)NC1=O [des2.1.0, SHA-Trp-dThr-Asp-Asn-dSer-dLys-dAsp-Lys] (HELM PEPTIDE1{D.N.[dS].[dK].[dD].K.[O=C([C@H](CCCCCS)N[*:1])[*:2]].W.[dT]}$PEPTIDE1,PEPTIDE1,1:R1-9:R2$$$V2.0)
HDAC3 activity raw data (signal): 1246343
--
compound: N=C(N)NCCC[C@H]1NC(=O)[C@@H]2CCCN2C(=O)[C@H](CO)NC(=O)[C@@H](Cc2c[nH]cn2)NC(=O)[C@H](CCCCCS)NC(=O)[C@H](CCCCN)NC(=O)[C@H](Cc2ccc(O)cc2)NC(=O)[C@H]2CCCN2C(=O)[C@@H](CCC(N)=O)NC1=O [des3.1.0, SHA-dHis-Ser-Pro-dArg-dGln-dPro-Tyr-Lys] (HELM PEPTIDE1{K.[O=C([C@H](CCCCCS)N[*:1])[*:2]].[dH].S.P.[dR].[dQ].[dP].Y}$PEPTIDE1,PEPTIDE1,1:R1-9:R2$$$V2.0)
HDAC3 activity raw data (signal): 1040178
--
compound: CC(C)C[C@H]1NC(=O)[C@H](Cc2c[nH]c3ccccc23)NC(=O)[C@H](CCCCCS)NC(=O)[C@@H](Cc2ccc(O)cc2)NC(=O)[C@@H](C(C)C)NC(=O)[C@H](Cc2c[nH]cn2)NC(=O)CNC(=O)CNC(=O)[C@@H](CO)NC1=O [des2.2.0, SHA-Trp-dLeu-dSer-Gly-Gly-His-dVal-dTyr] (HELM PEPTIDE1{G.G.H.[dV].[dY].[O=C([C@H](CCCCCS)N[*:1])[*:2]].W.[dL].[dS]}$PEPTIDE1,PEPTIDE1,1:R1-9:R2$$$V2.0)
HDAC3 activity raw data (signal): 1059045
